pIC50 overview
# System: S. Typhimurium PhoP-regulated promoter GFP reporter, 4 h
# Test: inhibitors of PhoP regulon expression, primary screen, Salmonella Typhimurium, GFP reporter (AID 1863)
Please express pIC50 as -log10 of the molar concentration.

Below, each entry is followed by its recorded pIC50 result.
[[record]]
compound = "Oc1c(C(Nc2ccccn2)c2ccccn2)ccc2cccnc12 (centres undefined)"
readout_label = "pIC50"
number = 4.04

[[record]]
compound = "CCOC(=O)N1CCN(C(c2cccnc2)c2ccc3cccnc3c2O)CC1 (centres undefined)"
readout_label = "pIC50"
number = 3.91

[[record]]
compound = "Clc1cc(Br)ccc1OCCCNCc1ccccc1"
readout_label = "pIC50"
number = 4.08


Next compound, please.
Exercise: Entry "COc1ccc(/C=N/Nc2cc(C)nc3c(C)cccc23)cc1" : reported pIC50 = ?
Solution: 4.09
